Data provenance: patent US20210040232A1

Exercise: for every item that follows, state its recorded pIC50.
- target or test system: T1, recombinant hCTLA-4-mFc (human CTLA-4 extracellular domain with a C-terminal Fc portion of mouse IgG2a) (human)
- T1 construct: also called dimeric CTLA-4 protein
- T1 sequence (chain, as listed by the source limits assumed): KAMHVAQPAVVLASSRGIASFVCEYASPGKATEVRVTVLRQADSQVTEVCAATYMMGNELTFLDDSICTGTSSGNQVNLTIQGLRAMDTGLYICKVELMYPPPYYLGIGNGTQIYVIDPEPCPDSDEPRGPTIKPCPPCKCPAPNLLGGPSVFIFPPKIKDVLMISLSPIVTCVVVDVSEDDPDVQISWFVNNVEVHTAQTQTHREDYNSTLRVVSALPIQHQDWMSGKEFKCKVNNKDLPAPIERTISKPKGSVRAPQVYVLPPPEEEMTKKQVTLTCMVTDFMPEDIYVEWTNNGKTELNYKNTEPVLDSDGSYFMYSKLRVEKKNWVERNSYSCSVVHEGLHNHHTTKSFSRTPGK
- measurement description: competition ELISA, 400 pM hCTLA-4-mFc on plate-coated hB7-2-hIgG1-6His
Just the number, please; pIC50 means minus log10 of the concentration in mol/L.

// query Data request, read-out pIC50, for H1H19294P (antibody, human IgG1, V domains shown) VH: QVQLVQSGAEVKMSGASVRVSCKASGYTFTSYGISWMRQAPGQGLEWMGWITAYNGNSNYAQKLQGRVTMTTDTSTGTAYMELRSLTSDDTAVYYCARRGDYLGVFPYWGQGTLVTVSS VL: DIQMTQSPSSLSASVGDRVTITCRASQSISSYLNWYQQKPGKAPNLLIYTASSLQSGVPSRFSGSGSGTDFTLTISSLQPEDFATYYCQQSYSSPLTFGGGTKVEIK
// result 9.60

// query // query: H1H19307P (antibody, human IgG1, V domains shown) VH: EVQLVESGGGLVQPGGSLRLACAASGFTFSDYYMDWVRQVPGKGLEWVGRSRDKANSFTTEYVASVKGRFTISREDSKNSVYLQMNSLKTEDTAVYYCARTNYDFSLDVWGQGTTVTVSS VL: DIQMTQSPSSLSASVGDRVTITCRASQDINNYLAWFQQKPGNAPKSLIYAASSLQSGVPSKFSGSGSGTDFTLTISSLQPEDFATYYCQQYSTYPITFGQGTRLEIK
// result 9.54

// query // query: H1H19303P (antibody, human IgG1, kappa, V domains shown, also called REGN4659) VH: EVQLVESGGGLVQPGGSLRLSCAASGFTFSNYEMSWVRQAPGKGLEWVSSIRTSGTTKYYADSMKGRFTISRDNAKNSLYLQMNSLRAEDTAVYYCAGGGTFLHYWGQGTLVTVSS VL: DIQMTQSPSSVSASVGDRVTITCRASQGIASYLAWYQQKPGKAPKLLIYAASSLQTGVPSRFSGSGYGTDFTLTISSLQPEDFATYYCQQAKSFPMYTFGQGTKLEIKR
// result 7.41

// query // query: H1H19312P (antibody, human IgG1, V domains shown) VH: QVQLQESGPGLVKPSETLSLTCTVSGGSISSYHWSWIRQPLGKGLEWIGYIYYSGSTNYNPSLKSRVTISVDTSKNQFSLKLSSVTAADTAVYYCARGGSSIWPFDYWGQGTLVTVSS VL: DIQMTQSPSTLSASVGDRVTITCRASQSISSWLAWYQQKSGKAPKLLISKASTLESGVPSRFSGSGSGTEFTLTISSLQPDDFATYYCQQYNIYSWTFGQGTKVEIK
// result 9.29

// query // query: H1H19280P (antibody, human IgG1, V domains shown) VH: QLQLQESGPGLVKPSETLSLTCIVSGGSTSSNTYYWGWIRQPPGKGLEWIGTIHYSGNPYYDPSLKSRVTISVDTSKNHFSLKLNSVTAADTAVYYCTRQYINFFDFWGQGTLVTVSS VL: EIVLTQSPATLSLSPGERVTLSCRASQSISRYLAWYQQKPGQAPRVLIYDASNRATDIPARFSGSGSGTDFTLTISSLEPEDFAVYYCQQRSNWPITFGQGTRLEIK
// result 9.70

// query // query: H1H19313P (antibody, human IgG1, V domains shown) VH: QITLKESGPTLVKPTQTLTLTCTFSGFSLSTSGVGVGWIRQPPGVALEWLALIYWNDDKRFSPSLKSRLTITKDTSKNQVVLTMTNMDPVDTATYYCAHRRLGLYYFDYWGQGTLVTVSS VL: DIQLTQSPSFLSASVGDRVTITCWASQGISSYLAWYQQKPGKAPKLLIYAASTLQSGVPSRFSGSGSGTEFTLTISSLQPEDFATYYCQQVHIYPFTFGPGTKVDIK
// result 9.11

// query // query: H1H20372N (antibody, human IgG1, V domains shown, here with human IgG1 Fc (H1H)) VH: EVQLVESGGGLVQPGRSLRLSCAGTGFIFDDYAMHWVRQAPGKGLEWVSGISWNSNSLGYADSVKGRFTISRDNAKKSLYLQMSSLRAEDTALYYCVKDVTRLELRGFLDYWGQGTQVTVSS VL: DIQMTQSPSSLSASVGDRVTITCRASQDIRNDLGWHQQKSGKAPKSLIYAASSLQSGAPSRFSGSGSGTEFTLTISSLQPEDSATYYCLQQNSYPPTFGQGTKVEIK
// result 9.00

// query // query: H1H19284P (antibody, human IgG1, V domains shown) VH: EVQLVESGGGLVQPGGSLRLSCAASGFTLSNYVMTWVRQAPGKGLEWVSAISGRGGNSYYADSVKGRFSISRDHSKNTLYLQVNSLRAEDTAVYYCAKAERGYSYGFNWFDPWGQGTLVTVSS VL: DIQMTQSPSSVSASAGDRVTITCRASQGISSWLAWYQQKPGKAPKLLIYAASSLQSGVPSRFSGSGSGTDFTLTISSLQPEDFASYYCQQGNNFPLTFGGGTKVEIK
// result 9.51

// query // query: H1H20373N (antibody, human IgG1, V domains shown, here with human IgG1 Fc (H1H)) VH: EVQLLESGGGLVQPGGSLRLSCAASGFTFSSYAMSWVRQAPGKGLEWVSDISGSGLSTYYADSVKGRFAISRDNSKNMLYLQMNRLRAEDTAVYYCAKEPSHWNGEAFDIWGQGTMVTVSS VL: DIQMTQSPSSVSASVGDRVTITCRASQDISSWLAWYQQKPGKAPKLLIYTTANLQSGVPSRFSGSGSGTDFTLTISSLQSEDFATYYCQQANSFPFTFGSGTKVDIK
// result 7.47

// query // query: H1H20361N (antibody, human IgG1, V domains shown, here with human IgG1 Fc (H1H)) VH: QVQLQESGPGLVKPSQTLSLTCTVSGGSINNGGHYWTWIRQHPGKGLEWIGYIYYIGTTYYNPSLESRLSLSVDTSKNQFSLKLSSVTAADTAIYYCARSSLSVSEAFDVWGQGTMVTVSS VL: DIQMTQSPSSLSASVGDRITITCRGSQNIGSFLSWYQQRPGKAPKLLIFGAYNLQGGVPSRFSGSGSGTDFTLTISSLQPEDFATYFCQQSYSTPPITFGQGTRLEIK
// result 7.19
